Target: Cytochrome P450 3A4 (Homo sapiens, UniProt P08684)
Sequence (P08684 whole entry): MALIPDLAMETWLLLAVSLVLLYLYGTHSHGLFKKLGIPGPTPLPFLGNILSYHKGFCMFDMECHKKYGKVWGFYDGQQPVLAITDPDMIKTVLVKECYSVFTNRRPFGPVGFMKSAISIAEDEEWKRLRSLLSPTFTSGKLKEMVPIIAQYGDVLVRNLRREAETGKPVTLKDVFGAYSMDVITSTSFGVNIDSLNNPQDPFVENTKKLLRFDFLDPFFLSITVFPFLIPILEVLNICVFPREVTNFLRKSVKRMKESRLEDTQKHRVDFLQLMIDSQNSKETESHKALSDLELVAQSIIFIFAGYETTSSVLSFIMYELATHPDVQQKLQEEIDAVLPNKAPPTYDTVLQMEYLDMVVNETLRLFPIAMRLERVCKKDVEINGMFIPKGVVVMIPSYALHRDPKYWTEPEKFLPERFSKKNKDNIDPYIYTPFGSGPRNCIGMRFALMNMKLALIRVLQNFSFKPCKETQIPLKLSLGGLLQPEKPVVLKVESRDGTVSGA
Assay: Inhibition of CYP3A4 in human liver microsomes using triazolam as substrate incubated for 3 mins prior to NAPDH-addition measured after 30 mins by RP-HPLC analysis
Type: ADME, Microsome

[
  {
    "Compound structure": "O=C(O)/C(O)=C/C(=O)c1cc(Cc2ccc(F)cc2F)cn(Cc2ccccc2F)c1=O",
    "Study system": "Cytochrome P450 3A4 (Homo sapiens, UniProt P08684)",
    "IC50": "> 200 µM"
  }
]

###

Target: UniProt:P08684
Experiment: Inhibition of CYP3A4 in human liver microsomes using testosterone as substrate incubated for 3 mins prior to NAPDH-addition measured after 30 mins by RP-HPLC analysis
Assay type: ADME, Microsome
pIC50: −log10 of the molar value.
Property measured: pIC50

[
  {
    "Compound structure": "O=C(O)/C(O)=C/C(=O)c1cc(Cc2ccc(F)cc2F)cn(Cc2ccccc2F)c1=O",
    "Study system": "UniProt:P08684",
    "Assay value": "< 3.70"
  }
]
